Source listed as paper PMC10439915.

Target: T1, GFP-labeled FOXM1_(1-138) (human, UniProt Q08050-3 1-138)
T1 construct: The fluorescent partner of the MST; Details are in the supplemental materials and methods
T1 sequence (looked up): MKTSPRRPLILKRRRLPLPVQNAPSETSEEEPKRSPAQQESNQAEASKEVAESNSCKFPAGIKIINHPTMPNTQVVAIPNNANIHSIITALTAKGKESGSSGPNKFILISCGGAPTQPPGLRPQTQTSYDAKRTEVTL
Test: MST; GFP-labeled FOXM1(1-138) with peptide at different concentrations; Monolith NT.115 (NanoTemper), MO.Affinity Analysis v2.3; three independent measurements
Conditions: both partners purified
Non-standard residues stand in square brackets, D forms with d. No end group written: not given here.
OBSERVED PROPERTY: Kd (µM)

Need Kd, item [dL]G[dP][dF][dS][dI][dD][dL][dL][dI][dK][dS][dL][dS][dD][dN][dM][dT][dD][dL] [M1-20]
5.66

[P] LDTMNDSLSKILLDISFPGL (also: conjugated to TAT cell-penetrating sequence) [P5]
[Q] [dL]G[dP][dF][dA][dA][dD][dA][dL][dI][dK][dS][dL][dS][dD][dN][dM][dT][dD][dL] [M1-20mut]
For the two items P and Q , which reports the higher Kd value? Write down the label attached to your selection.
Q
